system: PPARγ (Homo sapiens)
Construct: purchased Invitrogen Corporation, Carlsbad, Calif
Sequence (P37231 238-503 limits assumed): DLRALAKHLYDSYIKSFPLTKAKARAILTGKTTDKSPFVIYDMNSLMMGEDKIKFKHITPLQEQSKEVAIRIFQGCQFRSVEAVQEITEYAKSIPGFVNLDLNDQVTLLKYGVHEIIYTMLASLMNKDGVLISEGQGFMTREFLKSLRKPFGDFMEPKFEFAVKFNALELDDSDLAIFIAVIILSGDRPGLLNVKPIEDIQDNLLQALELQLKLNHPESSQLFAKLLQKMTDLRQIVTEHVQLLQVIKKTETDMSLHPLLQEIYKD
method: Commercial PPARγ binding assay (Invitrogen, PPAR-LBD/Fluormone PPAR Green complex)
details: 100 μM compound; mean of three experiments
The threshold is 100. Values of PPARγ binding signal (fluorescence polarization, Fluormone PPAR Green displacement) beneath it are tagged t; values meeting or exceeding it are tagged f.

Reference set (5 entries):
> print(dat)
                                   compound  discretelabel
1  CCc1ccc(C(=CCO)COc2ccc(CC3SC(=O)NC3=O)cc2)nc1 (stereo not drawn)              f
2  CCc1ccc([C@H](O)COc2ccc(CC3SC(=O)NC3=O)cc2)nc1 (stereo partly drawn)              t
3  CCc1ccc(CCOc2ccc(CC3(C)SC(=O)NC3=O)cc2)nc1 (single isomer, unassigned) [Compound 7]              f
4  CCc1ccc(C(=CC(=O)OC)COc2ccc(CC3SC(=O)NC3=O)cc2)nc1 (stereo not drawn)              t
5  CCc1ccc(C(=O)COc2ccc(CC3(C)SC(=O)NC3=O)cc2)nc1 (stereo not drawn)              t

Does the reported PPARγ binding signal (fluorescence polarization, Fluormone PPAR Green displacement) of CCc1ccc(C(=O)COc2ccc(CC3SC(=O)NC3=O)cc2)nc1 (stereo not drawn) stay below 100? f

Does the reported PPARγ binding signal (fluorescence polarization, Fluormone PPAR Green displacement) of CCc1ccc([C@@H](O)COc2ccc(CC3SC(=O)NC3=O)cc2)nc1 (stereo partly drawn) stay below 100? f

Does the reported PPARγ binding signal (fluorescence polarization, Fluormone PPAR Green displacement) of CCc1ccc([C@H](O)COc2ccc(CC3(C)SC(=O)NC3=O)cc2)nc1 (stereo partly drawn) stay below 100? f

* * *

Below, each entry is listed with its recorded Glucose.
Tested on: Diabetic KKAy mice
method: Glucose, insulin and triglyceride in diabetic KKAy mice, 4 days oral dosing
Format: in vivo
details: 93 mg/kg orally for 4 days, fasted, blood approx. 18 hours after last dose, mean and SEM, N=6-12
Marks after values point to notes of the source that are not given here.

Solved cases below.
> print(dat)
                                   molecule      recordedvalue
1  CCc1ccc(C(=O)COc2ccc(CC3SC(=O)NC3=O)cc2)nc1 (stereo not drawn)  402 +/− 25* mg/dl
2  CCc1ccc([C@@H](O)COc2ccc(CC3SC(=O)NC3=O)cc2)nc1 (stereo partly drawn)  428 +/− 17* mg/dl

Kindly review the next molecule as well.
Name the reported Glucose value associated with the molecule CCc1ccc([C@H](O)COc2ccc(CC3SC(=O)NC3=O)cc2)nc1 (stereo partly drawn) 388 +/− 38* mg/dl

Where these numbers come from: patent US9155729B2
